Test: Phase 1 study (NCT04249843): plasma pharmacokinetics of Compound A
Assay type: in vivo, human
Settings: human, plasma, oral, 40 mg, 40 mg QD, C2D1, patient 202-012
Description: For a single-dose profile: AUC from zero to the last measurable concentration (AUClast), AUC from zero to infinity (AUC0-∞), maximum observed plasma concentration (Cmax), time to maximum observed plasma concentration (tmax), t1/2, apparent clearance, and apparent volume of distribution (Vz/F). In addition, AUClast,ss, AUCtau, Cmax,ss, and tmax, ss were calculated at steady state. […] Pharmacokinetic data were analyzed using the PK Population. […]
reported property: Cmax (ng/mL)
Form entry: value (ng/mL) — number only.

I have this compound here, O=C1CCc2c(Oc3ccc4c(c3)[C@H]3[C@H](NC(=O)Nc5cc(F)c(F)cc5F)[C@H]3O4)ccnc2N1 , and I need its recorded Cmax.
2300

====

Assay: Log P
Type: physicochemical
reported property: logP

Bench note: what logP did O=C1CCc2c(Oc3ccc4c(c3)[C@H]3[C@H](NC(=O)Nc5cc(F)c(F)cc5F)[C@H]3O4)ccnc2N1 show?
> 4.46

====

Test: Phase 1 study (NCT04249843): plasma pharmacokinetics of Compound A
Type: in vivo, human
Details: human, plasma, oral, 40 mg, C1D1, patient 201-010; read-out: AUC24 h
reported property: AUC(0-t) (ng·h/mL)
// units = ng·h/mL; emit number, no label

Item under review: O=C1CCc2c(Oc3ccc4c(c3)[C@H]3[C@H](NC(=O)Nc5cc(F)c(F)cc5F)[C@H]3O4)ccnc2N1 . Reported AUC(0-t)?
8460

====

Test: Phase 1 study (NCT04249843): plasma pharmacokinetics of Compound A
Assay type: in vivo, human
Settings: human, plasma, oral, 40 mg, C1D1, patient 102-012; read-out: AUC8 h
reported property: AUC(0-t) (µg·h/mL)
Just the number in µg·h/mL, nothing appended.

AUC(0-t) lookup needed for O=C1CCc2c(Oc3ccc4c(c3)[C@H]3[C@H](NC(=O)Nc5cc(F)c(F)cc5F)[C@H]3O4)ccnc2N1 , thanks.
4.51

====

Experiment: Phase 1 study (NCT04249843): plasma pharmacokinetics of Compound A
Assay type: in vivo, human
Settings: human, plasma, oral, 60 mg, C1D1, patient 201-011; read-out: AUC24 h
reported property: AUC(0-t) (ng·h/mL)
Express your answer in ng·h/mL, writing the number without its unit.

Looking for the measured AUC(0-t) of O=C1CCc2c(Oc3ccc4c(c3)[C@H]3[C@H](NC(=O)Nc5cc(F)c(F)cc5F)[C@H]3O4)ccnc2N1 [Compound A] , can you help?
17600

====

Assay: Phase 1 study (NCT04249843): plasma pharmacokinetics of Compound A
Format: in vivo, human
Conditions: human, plasma, oral, 40 mg, 40 mg QD, C2D1, patient 201-010; read-out: AUC8 h
reported property: AUC(0-t) (ng·h/mL)
# output: bare number, implied unit ng·h/mL

Which value of AUC(0-t) has been reported for O=C1CCc2c(Oc3ccc4c(c3)[C@H]3[C@H](NC(=O)Nc5cc(F)c(F)cc5F)[C@H]3O4)ccnc2N1 [Compound A] in the records?
13400

====

Assay: Permeability
Type: in vitro ADME
Settings: not told
reported property: Papp

// Papp lookup, key: O=C1CCc2c(Oc3ccc4c(c3)[C@H]3[C@H](NC(=O)Nc5cc(F)c(F)cc5F)[C@H]3O4)ccnc2N1 [Compound A]
> 10 ×10⁻⁶ cm/s

Cited source: patent US20250090507A1
